Reference source: patent US20170369523A1

// values below are reported Ki
Assayed System: T1, NCoA-1 (UniProt Q15788 257-385, limits assumed)
T1 construct: also called SRC-1
T1 sequence (looked up): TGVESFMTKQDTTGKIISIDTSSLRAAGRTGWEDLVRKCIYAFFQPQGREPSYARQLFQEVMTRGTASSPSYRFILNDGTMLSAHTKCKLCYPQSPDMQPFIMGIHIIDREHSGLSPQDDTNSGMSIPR
Assay Text: competition fluorescence polarization; displacement of FluoSTAT6 from NCoA-1
Square brackets hold non-standard residues; d marks the D form. Hyp = O=C(O)[C@@H]1C[C@@H](O)CN1

Binder	Ki, µM
cyclo(FEWLAWEF[dP][Hyp]) (SMILES CC(C)C[C@@H]1NC(=O)[C@H](Cc2c[nH]c3ccccc23)NC(=O)[C@H](CCC(=O)O)NC(=O)[C@H](Cc2ccccc2)NC(=O)[C@@H]2C[C@@H](O)CN2C(=O)[C@H]2CCCN2C(=O)[C@H](Cc2ccccc2)NC(=O)[C@H](CCC(=O)O)NC(=O)[C@H](Cc2c[nH]c3ccccc23)NC(=O)[C@H](C)NC1=O, cyclo(-P1..P8-template-)) [Ex. 2]	4.7
cyclo(FEWGAWEF[dP]P) (SMILES C[C@@H]1NC(=O)CNC(=O)[C@H](Cc2c[nH]c3ccccc23)NC(=O)[C@H](CCC(=O)O)NC(=O)[C@H](Cc2ccccc2)NC(=O)[C@@H]2CCCN2C(=O)[C@H]2CCCN2C(=O)[C@H](Cc2ccccc2)NC(=O)[C@H](CCC(=O)O)NC(=O)[C@H](Cc2c[nH]c3ccccc23)NC1=O, cyclo(-P1..P8-template-)) [Ex. 7]	7.1
